# Experimental target: T1, DOP receptor (Homo sapiens, UniProt P41143)
# T1 chain: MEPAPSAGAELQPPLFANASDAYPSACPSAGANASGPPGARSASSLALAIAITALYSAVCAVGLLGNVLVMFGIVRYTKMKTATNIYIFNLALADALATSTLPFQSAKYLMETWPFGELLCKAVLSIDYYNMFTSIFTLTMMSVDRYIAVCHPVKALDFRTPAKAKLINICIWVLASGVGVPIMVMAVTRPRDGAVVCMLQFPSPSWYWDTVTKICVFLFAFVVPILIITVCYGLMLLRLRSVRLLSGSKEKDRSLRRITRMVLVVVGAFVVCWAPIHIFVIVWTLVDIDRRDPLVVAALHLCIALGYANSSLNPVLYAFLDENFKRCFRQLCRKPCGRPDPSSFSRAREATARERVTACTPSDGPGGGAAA
# Assay protocol: competition, [3H]-diprenorphine
pKi: −log10 of the molar value.
Endpoint label: pKi

Value of measured pKi for the entry XGGFTGXRKSARKRKNQ ([Nphe1,Aib7,Arg14,Lys15]N/OFQ-NH2; X1 = Nphe, X7 = Aib, C-terminal amide) [UFP-111] : < 5.00
